Provide the recorded LAP4-GFP fluorescence (kMESF) for the entries that follow.
# ASSAY PROCEDURE: LAP4-GFP modulation potency in yeast, dose response, cell-based, MLPCN hits, flow cytometry (AID 2745);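 note: yeast exposed to compound for three hours at 30 degrees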
# CONDITION DETAILS: S. cerevisiae LAP4-GFP reporter, flow cytometry fluorescence; at 33 µM (top of the series)
Activity calls are given as the source filed them. The rule behind the calls is not given here.

Below: 5 compounds and their reported LAP4-GFP fluorescence (kMESF).
# COMPOUND, RESULT
measured = [
    ("CC(=O)N(\\C=C/C=C/C=C1\\Sc2ccccc2C1=O)c1ccccc1", "14.2 kMESF (inactive)"),
    ("O=C(Cc1ccc(Cl)cc1)NNC(=S)NC(=O)c1cccs1", "9.52 kMESF (inactive)"),
    ("CC(C)[C@]1(c2ccc(Cl)cc2)ON(c2ccccc2C(F)(F)F)C1=O", "3.43 kMESF (inactive)"),
    ("COc1ccc2c(c1)c1nnc(SC)nc1n2C", "4.19 kMESF (inactive)"),
    ("N/C(Cc1ccc(Cl)cc1Cl)=N\\OC(=O)c1ccccc1", "9.94 kMESF (inactive)"),
]

Lookup: What LAP4-GFP fluorescence (kMESF) value was documented for this compound, COC(=O)CCCC1=CC2=CC(=O)C(C)(OC(=O)CCc3ccccc3)C(=O)C2=CO1 (stereo unspecified) ?
Found: 3.13 kMESF (inactive)
